Values from patent US20250034170A1

system.name: GCase (Homo sapiens)
Construct: endogenous in cells; host or cells: HeLa cells
Sequence (P04062 40-536): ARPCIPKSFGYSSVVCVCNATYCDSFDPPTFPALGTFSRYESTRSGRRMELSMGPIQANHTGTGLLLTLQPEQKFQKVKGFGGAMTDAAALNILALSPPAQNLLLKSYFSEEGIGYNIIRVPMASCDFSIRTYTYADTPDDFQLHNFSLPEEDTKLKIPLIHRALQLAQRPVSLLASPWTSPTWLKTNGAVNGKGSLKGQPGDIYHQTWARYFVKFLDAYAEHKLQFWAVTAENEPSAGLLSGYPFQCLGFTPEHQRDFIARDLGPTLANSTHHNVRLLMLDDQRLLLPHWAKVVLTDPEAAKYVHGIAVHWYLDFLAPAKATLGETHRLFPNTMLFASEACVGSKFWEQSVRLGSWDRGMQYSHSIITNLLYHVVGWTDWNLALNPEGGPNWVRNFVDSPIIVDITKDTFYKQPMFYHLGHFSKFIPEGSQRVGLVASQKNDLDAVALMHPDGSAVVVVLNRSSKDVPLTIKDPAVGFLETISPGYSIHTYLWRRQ
run.description: activation of GCase in a live cell PFB assay in HELA cells
Format: cell-based
conditions.used: EC50 given as range classes
observed.property: EC50

1. Cc1cc(Cl)cnc1N1CC2(CCN(c3cnc4cnn(CC(F)F)c4n3)C2)C1 :: 10 to 50 µM
2. FC(F)Cn1ncc2ncc(N3CCC4(CN(c5cccc(OC(F)F)n5)C4)C3)nc21 :: 10 to 50 µM
3. Cn1c(N2CCC3(CN(c4ccnc(C(F)(F)F)c4)C3)C2=O)nc2c(cnn2CC(F)F)c1=O :: 10 to 50 µM
